# system-under-test: human TLR8 (Homo sapiens (Human))
# Sequence (Q9NR97 27-1041): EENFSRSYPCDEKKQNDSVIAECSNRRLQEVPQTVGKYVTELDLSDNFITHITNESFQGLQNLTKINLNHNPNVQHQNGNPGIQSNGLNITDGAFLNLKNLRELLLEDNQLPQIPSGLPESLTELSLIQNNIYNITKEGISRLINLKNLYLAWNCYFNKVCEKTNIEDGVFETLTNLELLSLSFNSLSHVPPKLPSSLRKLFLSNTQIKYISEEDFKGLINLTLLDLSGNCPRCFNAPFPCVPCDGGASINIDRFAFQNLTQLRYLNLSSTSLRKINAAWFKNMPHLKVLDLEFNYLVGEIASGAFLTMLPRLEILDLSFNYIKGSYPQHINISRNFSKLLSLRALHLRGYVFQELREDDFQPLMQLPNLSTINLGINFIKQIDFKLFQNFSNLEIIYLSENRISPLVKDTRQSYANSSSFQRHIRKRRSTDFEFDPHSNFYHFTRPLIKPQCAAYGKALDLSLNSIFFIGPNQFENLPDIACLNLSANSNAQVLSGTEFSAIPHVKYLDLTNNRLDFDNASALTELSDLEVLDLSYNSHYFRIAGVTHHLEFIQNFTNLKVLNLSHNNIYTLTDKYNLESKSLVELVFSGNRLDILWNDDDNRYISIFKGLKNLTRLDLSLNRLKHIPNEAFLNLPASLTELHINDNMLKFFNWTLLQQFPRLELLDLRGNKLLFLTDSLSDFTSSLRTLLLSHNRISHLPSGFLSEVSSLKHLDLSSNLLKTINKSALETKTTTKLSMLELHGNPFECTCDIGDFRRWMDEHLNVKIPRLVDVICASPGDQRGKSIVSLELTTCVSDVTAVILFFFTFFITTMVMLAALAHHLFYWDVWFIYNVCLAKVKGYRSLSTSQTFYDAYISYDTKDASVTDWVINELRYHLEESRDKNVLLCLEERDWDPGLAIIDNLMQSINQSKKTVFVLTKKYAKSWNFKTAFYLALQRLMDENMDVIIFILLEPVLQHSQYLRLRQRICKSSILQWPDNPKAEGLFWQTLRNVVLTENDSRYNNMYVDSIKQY
# test-protocol: TLR8 inhibition reporter assay (HEK-Blue SEAP);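 note: SEAP driven by IFN-β minimal promoter carrying NF-κB and AP-1 sites, compounds dosed 0.05 nM to 50 µM for 22 h, inhibition scaled between agonist-plus-DMSO and reference-inhibitor wells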
# condition: read-out: TLR8 IC50; HEK-Blue cells overexpressing human TLR8, R848 15.9 μM stimulation, SEAP reporter
Kindly supply the reported pIC50 values for the records listed here.
pIC50 is a log-scale quantity: -log10 of the concentration expressed in molar.

Summary line: Cc1c(-c2[nH]c3ccc(C4CCC(N5CCS(=O)(=O)CC5)CC4)nc3c2C(C)C)cn2ncnc2c1C (stereo not shown) [Example 382] , human TLR8 (Homo sapiens (Human)), reported pIC50 = 7.66

Summary line: COc1cc(-c2[nH]c3ccc(C4CCC(NC5COC5)CC4)nc3c2C(C)C)cn2ncnc12 (stereo not shown) [Example 180] , human TLR8 (Homo sapiens (Human)), reported pIC50 = 7.96

Summary line: COc1cc(-c2[nH]c3ccc(C4CCC(NCc5cnco5)CC4)nc3c2C(C)C)cn2ncnc12 (stereo not shown) [Example 204] , human TLR8 (Homo sapiens (Human)), reported pIC50 = 8.54

Summary line: `Cc1c(-c2[nH]c3ccc(N4CCN(CC(=O)N(C)C)CC4)nc3c2C(C)C)cn2ncnc2c1C` , human TLR8 (Homo sapiens (Human)), reported pIC50 = 8.92

----------
Kindly supply the reported pIC50 values for the records listed here.
# system-under-test: human TLR7 (Homo sapiens (Human), UniProt Q9NYK1)
# Sequence (Q9NYK1 27-1049): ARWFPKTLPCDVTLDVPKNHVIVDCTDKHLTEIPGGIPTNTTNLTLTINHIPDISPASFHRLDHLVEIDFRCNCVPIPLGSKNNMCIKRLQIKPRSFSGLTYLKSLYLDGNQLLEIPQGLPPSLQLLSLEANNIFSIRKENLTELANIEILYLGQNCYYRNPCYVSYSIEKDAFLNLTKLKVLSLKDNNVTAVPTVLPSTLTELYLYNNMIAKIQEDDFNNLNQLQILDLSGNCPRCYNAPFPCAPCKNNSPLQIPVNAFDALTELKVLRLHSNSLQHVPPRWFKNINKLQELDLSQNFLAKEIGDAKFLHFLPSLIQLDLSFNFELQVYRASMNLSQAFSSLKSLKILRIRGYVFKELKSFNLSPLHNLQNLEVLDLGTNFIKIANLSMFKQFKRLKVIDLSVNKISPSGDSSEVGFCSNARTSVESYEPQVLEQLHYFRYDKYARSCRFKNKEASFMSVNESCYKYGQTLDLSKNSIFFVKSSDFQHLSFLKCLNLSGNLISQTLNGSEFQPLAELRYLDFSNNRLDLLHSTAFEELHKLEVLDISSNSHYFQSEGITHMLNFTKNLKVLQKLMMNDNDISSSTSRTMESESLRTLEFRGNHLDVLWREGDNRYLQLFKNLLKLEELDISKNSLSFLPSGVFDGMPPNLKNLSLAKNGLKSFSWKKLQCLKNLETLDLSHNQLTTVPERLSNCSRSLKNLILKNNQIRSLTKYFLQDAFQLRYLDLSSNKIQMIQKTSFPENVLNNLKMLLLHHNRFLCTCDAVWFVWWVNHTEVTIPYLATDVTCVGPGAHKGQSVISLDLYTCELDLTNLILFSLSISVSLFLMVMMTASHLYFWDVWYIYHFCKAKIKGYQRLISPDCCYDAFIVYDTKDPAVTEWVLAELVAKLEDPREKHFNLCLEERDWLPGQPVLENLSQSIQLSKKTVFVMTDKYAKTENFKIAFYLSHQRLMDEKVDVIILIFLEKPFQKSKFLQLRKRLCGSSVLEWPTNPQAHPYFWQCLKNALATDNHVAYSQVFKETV
# test-protocol: TLR7 inhibition reporter assay (HEK-Blue SEAP)
# Assay type: cell-based
# condition: HEK-Blue cells overexpressing human TLR7, SEAP reporter, gardiquimod 7.5 μM
pIC50 is a log-scale quantity: -log10 of the concentration expressed in molar.

Recorded pIC50 (molecule Cc1cc(-c2[nH]c3ccc(C4CNCCO4)nc3c2C(C)C)cn(C)c1=O (centres unmarked) [Example 675] ): 8.01

Recorded pIC50 (molecule `Cc1c(-c2[nH]c3ccc(C4CCN(CC(=O)N(C)C)CC4)nc3c2C(C)C)cn(C)c(=O)c1Cl` ): 7.74

Recorded pIC50 (molecule COc1cc(-c2[nH]c3ccc(C4CCC(NC(=O)CN(C)C)C4)nc3c2C(C)C)cn2ncnc12 (centres unmarked) ): 8.72

Recorded pIC50 (molecule Cc1cc(-c2[nH]c3ccc(C4CN(C)CCO4)nc3c2C(C)C)cn(C)c1=O (centres unmarked) ): 7.47

Recorded pIC50 (molecule `COc1ccc(-c2[nH]c3ccc(C4CCNCC4)nc3c2C(C)C)cc1OC` ): 8.06

Recorded pIC50 (molecule Cc1c(-c2[nH]c3ccc(C4CCC(N(CCO)CC5(S(C)(=O)=O)CC5)CC4)nc3c2C(C)C)cn2ncnc2c1C (centres unmarked) [Example 481] ): 9.09

Recorded pIC50 (molecule Cc1c(-c2[nH]c3ccc(C4CNCCN4)nc3c2C(C)C)cn2ncnc2c1C (centres unmarked) ): 7.92

Recorded pIC50 (molecule Cc1c(-c2[nH]c3ccc(C4CCC(NC5CC5)CC4)nc3c2C(C)C)cn2ncnc2c1C (centres unmarked) [Example 426] ): 8.60

----------
Kindly supply the reported pIC50 values for the records listed here.
# system-under-test: human TLR7 (Homo sapiens (Human), UniProt Q9NYK1)
# test-protocol: TLR7 inhibition reporter assay (HEK-Blue SEAP)
# Format: cell-based
# condition: HEK-Blue cells overexpressing human TLR7, gardiquimod 7.5 μM stimulation, SEAP reporter
pIC50 is a log-scale quantity: -log10 of the concentration expressed in molar.

Recorded pIC50 (compound `Cc1c(-c2[nH]c3ccc(N4CC(N5CCC(O)CC5)C4)nc3c2C(C)C)cn2ncnc2c1C` ): 7.62

Recorded pIC50 (compound Cc1c(-c2[nH]c3ccc(C4CCC(N5CCOCC5)CC4)nc3c2C(C)C)cn2ncnc2c1C (stereo not shown) ): 8.80

Recorded pIC50 (compound COc1cc(-c2[nH]c3cc(C)c(C4CCC(N(C)CCC#N)CC4)nc3c2C(C)C)cn2ncnc12 (stereo not shown) [Example 339] ): 9.70

Recorded pIC50 (compound COCc1cc(-c2[nH]c3ccc(C4CCC(NC5COC5)CC4)nc3c2C(C)C)cn2ncnc12 (stereo not shown) [Example 229] ): 7.72

----------
# system-under-test: UniProt:Q9NYK1
# test-protocol: TLR7 inhibition reporter assay (HEK-Blue SEAP)
# Assay type: cell-based
# condition: HEK-Blue cells overexpressing human TLR7, gardiquimod 7.5 μM stimulation, SEAP reporter
recorded-metric: pIC50
pIC50 is a log-scale quantity: -log10 of the concentration expressed in molar.

Recorded pIC50 (compound `CCN(C)C1CCN(c2ccc3[nH]c(-c4cn5ncnc5c(C)c4C)c(C(C)C)c3n2)CC1` ): 8.85

Recorded pIC50 (compound `COCCNCC(=O)N1CCN(c2ccc3[nH]c(-c4cn5ncnc5c(C)c4C)c(C(C)C)c3n2)CC1` ): 8.62

Recorded pIC50 (compound CCN(CC)C1CCC(c2ccc3[nH]c(-c4cn5ncnc5c(C)c4C)c(C(C)C)c3n2)CC1 (centres unmarked) ): 8.80

Recorded pIC50 (compound `COc1cc(-c2[nH]c3ccc(N4CCN(Cc5cn(C)nn5)CC4)nc3c2C(C)C)cn2ncnc12` ): 8.17

Recorded pIC50 (compound Cc1c(-c2[nH]c3ccc(C4CCC(N5CCC[C@H]5CO)CC4)nc3c2C(C)C)cn2ncnc2c1C (some centres unmarked) [Example 393] ): 9.33

Recorded pIC50 (compound `COc1cc(-c2[nH]c3ccc(N4CCN(C5COC5)CC4)nc3c2C(C)C)cn2ncnc12` ): 8.28

Recorded pIC50 (compound COc1cc(-c2[nH]c3ccc(C4CCC(N5CCCC5)CC4)nc3c2C(C)C)cn2ncnc12 (centres unmarked) [Example 174] ): 8.37

Recorded pIC50 (compound `Cc1c(-c2[nH]c3ccc(N4CCC(N)CC4)nc3c2C(C)C)cn2ncnc2c1C` ): 9.31

----------
Kindly supply the reported IC50 values for the records listed here.
# system-under-test: human TLR7 (Homo sapiens (Human), UniProt Q9NYK1)
# test-protocol: TLR7 inhibition reporter assay (HEK-Blue SEAP)
# Assay type: cell-based
# condition: HEK-Blue cells overexpressing human TLR7, gardiquimod 7.5 μM stimulation, SEAP reporter

Recorded IC50 (compound CNC1CCC(c2ccc3[nH]c(-c4cn(C)c5nccnc45)c(C(C)C)c3n2)CC1 (stereo not shown) [Example 297] ): 8.4 nM

Recorded IC50 (compound COc1cc(-c2[nH]c3ccc(C4CCC(N5CC6(C5)CS(=O)(=O)C6)CC4)nc3c2C(C)C)cn2ncnc12 (stereo not shown) [Example 248] ): 1.5 nM

Recorded IC50 (compound COc1cc(-c2[nH]c3ccc(C4CCC(N5CCC[C@H]5CO)CC4)nc3c2C(C)C)cn2ncnc12 (stereo partly shown) [Example 197] ): 0.34 nM

Recorded IC50 (compound COc1cc(-c2[nH]c3ccc(C4CCC(N(C)CCS(C)(=O)=O)CC4)nc3c2C(C)C)cn2ncnc12 (stereo not shown) [Example 242] ): 1.5 nM

----------
Kindly supply the reported IC50 values for the records listed here.
# system-under-test: UniProt:Q9NR96
# Sequence (Q9NR96 26-1032): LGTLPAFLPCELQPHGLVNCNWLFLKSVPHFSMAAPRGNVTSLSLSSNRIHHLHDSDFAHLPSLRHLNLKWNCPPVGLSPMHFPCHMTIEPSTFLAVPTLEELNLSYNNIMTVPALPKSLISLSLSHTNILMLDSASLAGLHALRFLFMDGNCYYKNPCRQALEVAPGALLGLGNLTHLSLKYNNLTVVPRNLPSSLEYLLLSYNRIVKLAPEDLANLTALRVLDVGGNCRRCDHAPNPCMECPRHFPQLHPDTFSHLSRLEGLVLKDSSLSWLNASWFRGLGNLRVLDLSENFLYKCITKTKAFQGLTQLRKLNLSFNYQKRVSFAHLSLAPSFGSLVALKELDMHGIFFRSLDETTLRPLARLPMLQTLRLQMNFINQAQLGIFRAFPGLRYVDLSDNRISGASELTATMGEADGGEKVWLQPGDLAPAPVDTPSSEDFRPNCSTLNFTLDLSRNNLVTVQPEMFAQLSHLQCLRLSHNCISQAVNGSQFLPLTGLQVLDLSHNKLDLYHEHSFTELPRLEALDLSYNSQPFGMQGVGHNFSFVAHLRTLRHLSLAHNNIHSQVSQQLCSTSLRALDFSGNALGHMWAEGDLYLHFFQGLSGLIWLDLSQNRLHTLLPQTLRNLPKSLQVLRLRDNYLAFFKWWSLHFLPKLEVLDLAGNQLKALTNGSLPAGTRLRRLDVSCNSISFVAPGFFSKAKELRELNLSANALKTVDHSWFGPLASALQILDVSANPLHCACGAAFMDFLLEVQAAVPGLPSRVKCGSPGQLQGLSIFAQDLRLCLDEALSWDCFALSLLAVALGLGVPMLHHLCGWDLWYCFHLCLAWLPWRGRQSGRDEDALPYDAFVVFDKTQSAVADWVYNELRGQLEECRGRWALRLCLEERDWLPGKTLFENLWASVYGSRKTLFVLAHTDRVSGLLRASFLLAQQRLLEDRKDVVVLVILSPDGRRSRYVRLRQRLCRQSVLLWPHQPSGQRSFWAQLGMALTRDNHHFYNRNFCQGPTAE
# test-protocol: TLR9 inhibition reporter assay (HEK-Blue SEAP)
# condition: read-out: TLR9 IC50; HEK-Blue cells overexpressing human TLR9, ODN2006 5 nM stimulation, SEAP reporter
Quick reminder: number only, in µM, skip the unit.

Recorded IC50 (compound COc1cc(-c2[nH]c3cc(C)c(C4CCC(N5CC6(COC6)C5)CC4)nc3c2C(C)C)cn2ncnc12 (stereo not drawn) [Example 319] ): 1.69

Recorded IC50 (compound `Cc1c(-c2[nH]c3ccc(N4CCC(N(C)C5CCC5)CC4)nc3c2C(C)C)cn2ncnc2c1C` ): 2.38

Recorded IC50 (compound Cc1c(-c2[nH]c3ccc(C4CCC(N5CCC[C@H]5CO)CC4)nc3c2C(C)C)cn2ncnc2c1C (stereo partly drawn) [Example 393] ): 0.36

Recorded IC50 (compound `Cc1c(-c2[nH]c3ccc(N4CCN(C)CC4)nc3c2C(C)C)cn2ncnc2c1C` ): 9.43

Recorded IC50 (compound C#CCNC1CCC(c2ccc3[nH]c(-c4cn5ncnc5c(C)c4C)c(C(C)C)c3n2)CC1 (stereo not drawn) [Example 371] ): 4.36

Recorded IC50 (compound CC(C)c1c(-c2cc(CO)c3ncnn3c2)[nH]c2ccc(C3CCC(NCCC(F)(F)F)CC3)nc12 (stereo not drawn) [Example 308] ): 3.97

Recorded IC50 (compound COc1cc(-c2[nH]c3ccc(C4CCC(NCc5cnco5)CC4)nc3c2C(C)C)cn2ncnc12 (stereo not drawn) [Example 206] ): 2.39

Recorded IC50 (compound `CC(C)c1c(-c2cn(C)c3ncccc23)[nH]c2ccc(N3CCC(N(CC(=O)N(C)C)CC(=O)N(C)C)CC3)nc12` ): 10.4

Recorded IC50 (compound COc1cc(-c2[nH]c3ccc(N4CCN(C(C)CCO)CC4)nc3c2C(C)C)cn2ncnc12 (stereo not drawn) ): 5.58

Recorded IC50 (compound Cc1c(-c2[nH]c3ccc(C4CCC(NC5COC5)CC4)nc3c2C(C)C)cn2cnnc2c1C (stereo not drawn) [Example 233] ): 2.66

Recorded IC50 (compound CC(C)c1c(-c2cn(C)c3ncccc23)[nH]c2ccc(C3CCC(NCC(=O)N(C)C)CC3)nc12 (stereo not drawn) [Example 182] ): 0.301

Recorded IC50 (compound CNC1CCC(c2ccc3[nH]c(-c4cn(CCO)c5ncccc45)c(C(C)C)c3n2)CC1 (stereo not drawn) [Example 295] ): 0.883

Recorded IC50 (compound `Cc1c(-c2[nH]c3ccc(N4CCNCC4)nc3c2C(C)C)cn2ncnc2c1C` ): 7.33

Recorded IC50 (compound COc1cc(-c2[nH]c3ccc(C4CCC(N(C)CC(N)=O)CC4)nc3c2C(C)C)cn2ncnc12 (stereo not drawn) [Example 225] ): 3.36

Recorded IC50 (compound CC(C)c1c(-c2cn(C)c3ncncc23)[nH]c2ccc(C3CCC(NC4CCOCC4)CC3)nc12 (stereo not drawn) ): 8.24

Recorded IC50 (compound `COc1cc(-c2[nH]c3ccc(N4CCN(Cc5cn(C)nn5)CC4)nc3c2C(C)C)cn2ncnc12` ): 22.8

Recorded IC50 (compound Cc1c(-c2[nH]c3ccc(C4CCC(N(C)CCO)CC4)nc3c2C(C)C)cn2ncnc2c1C (stereo not drawn) ): 3.2

Recorded IC50 (compound Cc1c(-c2[nH]c3ccc(C4CCC(NCCO)CC4)nc3c2C(C)C)cn2ncnc2c1C (stereo not drawn) ): 0.909

Recorded IC50 (compound Cc1cc(-c2[nH]c3ccc(C4CCC(N(C)C5COC5)CC4)nc3c2C(C)C)cn(C)c1=O (stereo not drawn) ): 13.7

Recorded IC50 (compound COc1cc(-c2[nH]c3ccc(C4CCC(N(C)Cc5ncccn5)CC4)nc3c2C(C)C)cn2ncnc12 (stereo not drawn) [Example 208] ): 1.35

Recorded IC50 (compound Cc1cnc(CNC2CCC(c3ccc4[nH]c(-c5cc(CO)c6ncnn6c5)c(C(C)C)c4n3)CC2)cn1 (stereo not drawn) [Example 217] ): 0.522

Recorded IC50 (compound CC(C)c1c(-c2cn(CC#N)c3ncccc23)[nH]c2ccc(C3CCC(NC4CCOCC4)CC3)nc12 (stereo not drawn) ): 0.578

Recorded IC50 (compound COc1cc(-c2[nH]c3ccc(N4CCN(CC5CCOC5)CC4)nc3c2C(C)C)cn2ncnc12 (stereo not drawn) ): 5.63

Recorded IC50 (compound COc1cc(-c2[nH]c3cc(C)c(C4CCC(N5CCC5)CC4)nc3c2C(C)C)cn2ncnc12 (stereo not drawn) [Example 325] ): 3.11

Recorded IC50 (compound `COc1cc(-c2[nH]c3ccc(N4CCNCC4)nc3c2C(C)C)cn2ncnc12` ): 3.26

Recorded IC50 (compound CC(C)c1c(-c2cc(CO)c3ncnn3c2)[nH]c2ccc(C3CCC(NC4COC4)CC3)nc12 (stereo not drawn) [Example 215] ): 2.25

Attribution: patent US10544143B2
